Tested on: 168753-222-R-J1-PDC complex spheroid viability;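 also: luminescence signal used as surrogate for viable cell amount; viability measured after seven days of drug exposure; 100% = DMSO vehicle control wells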
Assay: Anticancer human tumor 168753-222-R-J1-PDC patient-derived bladder carcinoma cell line growth inhibition [CLK]
Conditions: second compound 0.316 µM; first compound 0.000949 µM; active compounds read low
property-name: viability, T/C (%)
Please give a number only; it is taken to be in %.

Task item: // viability, T/C lookup, key: C=CC(=O)Nc1cc(Nc2nccc(-c3cn(C)c4ccccc34)n2)c(OC)cc1N(C)CCN(C)C + CN1CCN(c2cc(C(=O)Nc3cc4cc(-c5cnn(C)c5)ccc4cn3)ccn2)CC1
Reply: 10.4

Task item: Now try C=CC(=O)Nc1cc(Nc2nccc(-c3cn(C)c4ccccc34)n2)c(OC)cc1N(C)CCN(C)C + CNC(=O)c1ccc(Nc2nc(OC3CCCC3)c3c(-c4ccc5nc(C)oc5c4)c[nH]c3n2)c(OC)c1 .
Reply: 73.5

Task item: Now try CC(C)CC(NC(=O)C(Cc1ccccc1)NC(=O)c1cnccn1)B(O)O (centres undefined) + CNC(=O)c1ccc(Nc2nc(OC3CCCC3)c3c(-c4ccc5nc(C)oc5c4)c[nH]c3n2)c(OC)c1 .
Reply: 76.4

Task item: Now try CC(C)CC(NC(=O)C(Cc1ccccc1)NC(=O)c1cnccn1)B(O)O (centres undefined) + CN1CCN(c2cc(C(=O)Nc3cc4cc(-c5cnn(C)c5)ccc4cn3)ccn2)CC1 .
Reply: 11.4
